Source listed as patent US20230355720A1.

Parameter In vitro activity (%) compared with native peptide, vs GIP: see the listing below.
Tested Target: T1, human GIP receptor (human, UniProt P48546 22-466)
T1 sequence (looked up): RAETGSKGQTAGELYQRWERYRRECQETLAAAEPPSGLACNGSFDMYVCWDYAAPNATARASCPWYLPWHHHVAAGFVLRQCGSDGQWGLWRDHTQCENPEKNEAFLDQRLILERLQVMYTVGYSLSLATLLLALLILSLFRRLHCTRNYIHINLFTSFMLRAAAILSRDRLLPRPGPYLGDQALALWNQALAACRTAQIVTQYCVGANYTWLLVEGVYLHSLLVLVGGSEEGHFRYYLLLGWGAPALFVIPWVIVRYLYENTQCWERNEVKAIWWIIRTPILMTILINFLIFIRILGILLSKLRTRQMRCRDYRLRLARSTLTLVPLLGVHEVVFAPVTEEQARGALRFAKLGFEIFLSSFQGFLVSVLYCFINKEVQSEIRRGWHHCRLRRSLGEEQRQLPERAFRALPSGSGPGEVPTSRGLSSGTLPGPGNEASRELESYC
Assay Summary: cell-based or functional assay
Bridge positions count the residues as written; N and C are the ends. Square brackets hold non-standard residues; d marks the D form. Ends that are not written are not given here. * marks the point of attachment. Acetyl(2-(4-imidazolyl)) = O=C(Cc1c[nH]cn1)*; Aib = CC(C)(N)C(=O)O

{Acetyl(2-(4-imidazolyl))}-[Aib]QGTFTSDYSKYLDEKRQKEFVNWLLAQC (bridge 15-19; numbers in words are those of the source; also: ring between positions 16 and 20, type not given here) [triple agonist of SEQ ID NO: 86]	0.2%

Ask: Fill in the blank: the reported In vitro activity (%) compared with native peptide, vs GIP of Y[Aib]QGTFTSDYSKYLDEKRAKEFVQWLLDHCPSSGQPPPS (bridge 16-20) [triple agonist of SEQ ID NO: 96] is ____.
Result: 5.2%
